target: Cyclin H - CDK7 (Homo sapiens)
Sequence (P50613 whole entry): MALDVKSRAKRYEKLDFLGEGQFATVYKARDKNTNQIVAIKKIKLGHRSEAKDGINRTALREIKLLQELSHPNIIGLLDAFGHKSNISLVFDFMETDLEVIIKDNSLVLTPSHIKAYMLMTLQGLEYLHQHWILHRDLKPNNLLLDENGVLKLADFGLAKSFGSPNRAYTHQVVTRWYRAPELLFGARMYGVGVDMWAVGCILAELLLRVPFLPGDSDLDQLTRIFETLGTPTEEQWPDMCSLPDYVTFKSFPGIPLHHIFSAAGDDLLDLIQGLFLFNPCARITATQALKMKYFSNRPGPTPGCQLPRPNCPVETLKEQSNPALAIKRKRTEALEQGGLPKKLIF
Sequence (P51946 whole entry partner): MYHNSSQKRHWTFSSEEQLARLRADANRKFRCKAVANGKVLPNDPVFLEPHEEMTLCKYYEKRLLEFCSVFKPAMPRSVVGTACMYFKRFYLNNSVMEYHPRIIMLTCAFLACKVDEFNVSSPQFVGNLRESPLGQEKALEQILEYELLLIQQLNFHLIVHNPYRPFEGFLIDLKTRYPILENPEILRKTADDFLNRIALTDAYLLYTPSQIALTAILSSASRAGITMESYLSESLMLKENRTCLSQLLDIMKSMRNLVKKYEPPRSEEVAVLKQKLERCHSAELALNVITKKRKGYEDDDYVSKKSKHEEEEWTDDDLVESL
measured_metric: pIC50
The quantity pIC50 is defined as the negative base-10 logarithm of the molar concentration.

Some molecules with known pIC50 results, for comparison:
- molecule: "Cc1nc2c(s1)-c1nc(Nc3cccc([N+](=O)[O-])c3)ncc1CC2 [Cpd 1]"
  experimental_target: "Cyclin H - CDK7 (Homo sapiens)"
  pIC50: 5.77
- molecule: "Cc1nc2c(s1)-c1nc(Nc3cccc(O)c3)ncc1CC2 [Cpd 3]"
  experimental_target: "Cyclin H - CDK7 (Homo sapiens)"
  pIC50: 6.96
- molecule: "Nc1nc2c(s1)-c1nc(Nc3ccccc3)ncc1CC2 [Cpd 13]"
  experimental_target: "Cyclin H - CDK7 (Homo sapiens)"
  pIC50: 5.60
- molecule: "Cc1nc2c(s1)-c1nc(Nc3ccc(N(C)C)cc3)ncc1CC2 [Cpd 6]"
  experimental_target: "Cyclin H - CDK7 (Homo sapiens)"
  pIC50: 6.89
- molecule: "Cc1nc2ccc3cnc(N(C)c4cccc([N+](=O)[O-])c4)nc3c2s1 [Cpd 10]"
  experimental_target: "Cyclin H - CDK7 (Homo sapiens)"
  pIC50: 4.36
- molecule: "Cc1nc2c(s1)-c1nc(Nc3ccc(O)cc3)ncc1CC2 [Cpd 5]"
  experimental_target: "Cyclin H - CDK7 (Homo sapiens)"
  pIC50: 6.19

// below: pIC50 requested for another molecule
q: For the record Cc1nc2c(s1)-c1nc(N(C)c3cccc([N+](=O)[O-])c3)ncc1CC2 [Cpd 9] , what value of pIC50 is listed for Cyclin H - CDK7 (Homo sapiens)?
a: 5.41
